The entries below are paired with their reported inhibition at 10 µM.
assayed.target: nitric oxide synthase (Rattus norvegicus)
Construct: the supernatant was then decanted and frozen in portions; from tissue; host or cells: rat cerebellum, homogenate supernatant after 20,000 g
assay.explanation: HTS NO synthase assay
Assay type: biochemical
measurement.setup: 10 μM test compound; enzyme from rat cerebellum; [3H]arginine substrate; read-out: Inhibition of nitric oxide synthase (10 μM) in per cent
Give the quantity in %, number only.

Solved entries:
compound: COc1ccc(-c2cn3ccc(C)cc3n2)cc1
value.measured: 39
--
compound: Cc1ccn2ccnc2c1 [Example 3, 7-Methyl-imidazo[1,2-a]pyridine]
value.measured: 53
--
compound: Cc1ccn2cc(C)nc2c1 [Example 2, 2,7-Dimethyl-imidazo[1,2-a]pyridine]
value.measured: 68

Please look at the following compound next.
stdin: Please give the measured inhibition at 10 µM for this compound: Cc1ccn2cc(C(C)(C)C)nc2c1
stdout: 89
